# target: APOL1 (Homo sapiens)
# Sequence (O14791 1-398): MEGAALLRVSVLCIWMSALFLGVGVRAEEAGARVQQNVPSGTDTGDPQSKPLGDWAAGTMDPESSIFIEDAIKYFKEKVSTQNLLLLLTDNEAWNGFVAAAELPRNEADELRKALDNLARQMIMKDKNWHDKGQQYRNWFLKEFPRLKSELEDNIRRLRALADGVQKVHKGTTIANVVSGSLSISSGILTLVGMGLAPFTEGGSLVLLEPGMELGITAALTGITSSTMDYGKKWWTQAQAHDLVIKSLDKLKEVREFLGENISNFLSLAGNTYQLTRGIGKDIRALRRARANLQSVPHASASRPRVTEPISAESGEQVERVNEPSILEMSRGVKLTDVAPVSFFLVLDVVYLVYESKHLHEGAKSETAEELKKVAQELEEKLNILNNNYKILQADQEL
# protocol: MultiTox-Fluor Multiplex Cytotoxicity Assay, tet-inducible APOL1 T-REx-HEK293 cells (G0, G1 or G2 clone not specified for Table 20)
# condition.notes: tet-induced, 24 hours with compound, ratio of dead to live cells, read-out: IP50 (i.e., IC50 for cell proliferation)
Attribute: IC50
measured.attribute: IC50

1) C[C@H]1C[C@@]2(CCN1Cc1cnn(CCO)c1)C(=O)Nc1ccc(Cl)cc12; 50 to 500 nM
2) C[C@H]1C[C@@]2(CCN1Cc1ccccn1)OCCc1ccc(Cl)cc12; ≥ 500 nM
3) CS(=O)(=O)CCn1cc(CN2CCC3(CC2)OC(C(N)=O)c2ccc(Cl)cc23)cn1 (centres unmarked); ≤ 50 nM
4) CS(=O)(=O)CCn1cc(CN2CCC3(CC2)C(=O)N(CC(F)F)c2ccccc23)cn1; ≥ 500 nM
5) NC(=O)C1OC2(CCN(Cc3cnn(C4CC4)c3N)CC2)c2cc(Cl)ccc21 (centres unmarked); 50 to 500 nM
6) Cc1ncc(-n2cc(CN3CCC4(CC3)OC(C(N)=O)c3ccc(Cl)cc34)cn2)cn1 (centres unmarked); ≤ 50 nM
7) CN1C(=O)C2(CCN(Cc3cn(CC(C)(CO)CO)nn3)CC2)c2cc(Cl)ccc21; ≥ 500 nM
8) N#Cc1ccc(CN2CCC3(CC2)OC(C(N)=O)c2ccc(Cl)cc23)cc1 (centres unmarked); 50 to 500 nM

----------
Attribute: pIC50
# target: APOL1 (Homo sapiens)
# Sequence (O14791 1-398): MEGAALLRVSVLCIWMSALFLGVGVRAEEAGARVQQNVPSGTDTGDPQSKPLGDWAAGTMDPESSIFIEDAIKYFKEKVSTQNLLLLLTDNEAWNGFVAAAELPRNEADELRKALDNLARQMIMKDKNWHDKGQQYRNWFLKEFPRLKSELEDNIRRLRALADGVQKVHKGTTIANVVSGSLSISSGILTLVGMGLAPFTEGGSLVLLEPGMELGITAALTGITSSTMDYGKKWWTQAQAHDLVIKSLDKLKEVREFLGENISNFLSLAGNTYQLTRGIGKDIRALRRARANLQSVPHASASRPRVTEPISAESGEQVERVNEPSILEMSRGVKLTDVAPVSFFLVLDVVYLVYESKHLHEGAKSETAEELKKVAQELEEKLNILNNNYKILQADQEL
# protocol: MultiTox-Fluor Multiplex Cytotoxicity Assay, tet-inducible APOL1 T-REx-HEK293 cells (G0, G1 or G2 clone not specified for Table 20)
# condition.notes: tet-induced, 24 hours with compound, ratio of dead to live cells, read-out: IP50 (i.e., IC50 for cell proliferation)
pIC50: −log10 of the molar value.
measured.attribute: pIC50

1. CN1C(=O)Cc2ccc(CN3CCC4(CC3)OC(C(N)=O)c3ccc(Cl)cc34)cc21 (centres unmarked) [Compound 230]; ≥ 7.30
2. CC(C)(C)c1ncc(CN2CCC3(CC2)OC(C(N)=O)c2ccc(Cl)cc23)cn1 (centres unmarked) [Compound 267]; ≤ 6.30
3. Cc1ccc2c(c1)[C@]1(CCN(Cc3cn[nH]c3)[C@@H](C)C1)OCC2 [Compound 96]; ≥ 7.30
4. Cc1cc(CN2CCC3(CC2)OC(C(N)=O)c2ccc(Cl)cc23)on1 (centres unmarked) [Compound 258]; ≤ 6.30
5. Cc1ccc2c(c1)[C@@]1(CCN(Cc3cnc(NC(C)(C)CO)nc3)[C@@H](C)C1)OCC2 [Compound 95]; ≤ 6.30
6. NC(=O)C1OC2(CCN(Cc3cnc4c(c3)COCC4)CC2)c2cc(Cl)ccc21 (centres unmarked) [Compound 238]; ≤ 6.30
7. C[C@H]1CC2(CCN1Cc1cnn(CCS(C)(=O)=O)c1)C(=O)Nc1ccc(Cl)cc12 (stereo in doubt) [Compound 74]; ≤ 6.30
8. CNC(=O)C1OC2(CCN(Cc3cnn(-c4ccccc4)c3)CC2)c2cc(C(F)(F)F)ccc21 (centres unmarked) [Compound 199]; 6.30 to 7.30
9. CNc1ncc(CN2CCC3(CC2)OC(C(N)=O)c2ccc(Cl)cc23)cn1 (centres unmarked) [Compound 244]; ≥ 7.30
10. C[C@H]1C[C@@]2(CCN1Cc1ccncc1)OCCc1ccc(Cl)cc12 [Compound 118]; ≥ 7.30
11. C[C@H]1C[C@@]2(CCN1Cc1cnn(CCS(C)(=O)=O)c1)OCCc1ccc(Cl)cc12 [Compound 88]; ≥ 7.30
12. C[C@H]1C[C@@]2(CCN1Cc1cn(C)nn1)OCCc1ccc(Cl)cc12 [Compound 105]; ≥ 7.30
13. CS(=O)(=O)CCn1cc(CN2CCC3(CC2)CC(O)c2ccc(Cl)cc23)cn1 (centres unmarked) [Compound 302]; 6.30 to 7.30
14. Cn1cc(CN2CCC3(CCc4ccc(Cl)cc43)CC2)cn1 [Compound 310]; ≤ 6.30
15. NC(=O)C1OC2(CCN(Cc3cnn(-c4ccccc4)c3)CC2)c2cc(C(F)(F)F)ccc21 (centres unmarked) [Compound 197]; ≥ 7.30
16. Cn1cc(CN2CCC3(CC2)OCCc2ccccc23)cn1 [Compound 127]; ≤ 6.30
17. C[C@H]1CC2(CCN1Cc1cn(CCS(C)(=O)=O)nn1)OC(C)(C)c1ccc(Cl)cc12 (single isomer, unassigned) [Compound 291]; ≤ 6.30
18. C[C@H]1C[C@@]2(CCN1Cc1cn(CC(C)(C)NS(C)(=O)=O)nn1)OCCc1ccc(Cl)cc12 [Compound 167]; ≥ 7.30
19. CNC(=O)C1OC2(CCN(Cc3cnn(C4CCOCC4)c3)CC2)c2cc(Cl)ccc21 (centres unmarked) [Compound 200]; 6.30 to 7.30
20. CC(C)Oc1ccc(CN2CCC3(CC2)C(=O)Nc2ccc(Cl)cc23)cc1 [Compound 7]; 6.30 to 7.30
21. NC(=O)C1OC2(CCN(Cc3cnn4c3NCCC4)CC2)c2cc(Cl)ccc21 (centres unmarked) [Compound 254]; ≤ 6.30
22. CNC(=O)C1OC2(CCN(Cc3cnn(-c4ccccc4)c3)CC2)c2cc(OC)ccc21 (centres unmarked) [Compound 297]; ≤ 6.30
23. Cc1ccc2c(c1)C1(CCN(Cc3cnn(CC4(C)COC4)c3)CC1)C(=O)N2 [Compound 24]; ≤ 6.30
24. O=C(O)C1OC2(CCN(Cc3cnn(-c4ccccc4)c3)CC2)c2cc(Cl)ccc21 (centres unmarked) [Compound 192]; ≤ 6.30
25. C[C@H]1C[C@@]2(CCN1Cc1cn(Cc3cnn4c3C(=O)N(C)CC4)nn1)OCCc1ccc(Cl)cc12 [Compound 166]; 6.30 to 7.30
26. CC(C)(CO)Nc1ncc(CN2CCC3(CC2)C(=O)Nc2ccc(Cl)cc23)cn1 [Compound 10]; 6.30 to 7.30
27. NC(=O)C1OC2(CCN(Cc3ccc[nH]c3=O)CC2)c2cc(Cl)ccc21 (centres unmarked) [Compound 270]; ≤ 6.30
28. Cc1ccc2c(c1)[C@@]1(CCN(Cc3cnn(CC(C)(CO)CO)c3)[C@@H](C)C1)OCC2 [Compound 101]; 6.30 to 7.30
29. CS(=O)(=O)CCn1cc(CN2CCC3(CC2)CC(N2CCNC2=O)c2ccc(Cl)cc23)cn1 (centres unmarked) [Compound 312]; ≤ 6.30
30. C[C@H]1C[C@@]2(CCN1Cc1cn(CCCc3nc(=O)[nH][nH]3)nn1)OCCc1ccc(Cl)cc12 [Compound 160]; 6.30 to 7.30
31. Cc1ccc(CN2CCC3(CC2)OC(C(N)=O)c2ccc(Cl)cc23)cn1 (centres unmarked) [Compound 227]; ≥ 7.30
32. CN(C)C(=O)Cn1cc(CN2CCC3(CC2)OC(C(N)=O)c2ccc(Cl)cc23)cn1 (centres unmarked) [Compound 284]; 6.30 to 7.30

----------
# target: UniProt O14791
# Sequence (O14791 1-398): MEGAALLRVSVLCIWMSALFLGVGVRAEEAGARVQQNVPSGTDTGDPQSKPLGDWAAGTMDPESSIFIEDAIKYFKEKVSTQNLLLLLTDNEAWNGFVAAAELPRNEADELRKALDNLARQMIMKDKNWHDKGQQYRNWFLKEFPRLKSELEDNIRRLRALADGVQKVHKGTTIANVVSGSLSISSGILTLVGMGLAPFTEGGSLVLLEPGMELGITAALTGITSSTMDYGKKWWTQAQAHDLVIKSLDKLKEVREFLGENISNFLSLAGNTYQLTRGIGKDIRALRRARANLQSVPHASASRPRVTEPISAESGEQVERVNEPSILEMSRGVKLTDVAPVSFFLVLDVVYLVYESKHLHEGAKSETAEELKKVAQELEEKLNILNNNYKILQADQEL
# protocol: MultiTox-Fluor Multiplex Cytotoxicity Assay, tet-inducible APOL1 T-REx-HEK293 cells (G0, G1 or G2 clone not specified for Table 20)
# condition.notes: tet-induced, 24 hours with compound, ratio of dead to live cells, read-out: IP50 (i.e., IC50 for cell proliferation)
# Protocol: Human embryonic kidney (HEK293) cell lines containing a tet-inducible expression system (T-REx™; Invitrogen, Carlsbad, CA) and Adeno-associated virus site 1 pAAVS1-Puro-APOL1 G0 or pAAVS1-Puro-APOL1 G1 or pAAVS1-Puro-APOL1 G2 Clones G0 DC2.13, G1 DC3.25, and G2 DC4.44 were grown in a T-225 flask at ˜90% confluency in cell growth media (DMEM, 10% Tet-free FBS, 2 mM L-glutamine, 100 Units/mL penicillin-streptomycin, 5 μg/mL blasticidin S HCl, 1 μg/mL puromycin dihydrochloride). […]
pIC50: −log10 of the molar value.
measured.attribute: pIC50

1. Cc1ncc(CN2CCC3(CC2)OC(C(N)=O)c2ccc(Cl)cc23)cn1 (stereo not shown) [Compound 215]; ≤ 6.30
2. C[C@H]1C[C@@]2(CCN1Cc1cn(C)cn1)OCCc1ccc(Cl)cc12 [Compound 108]; ≤ 6.30
3. COc1ccc(CN2CCC3(CC2)C(=O)Nc2ccc(Cl)cc23)cc1F [Compound 8]; 6.30 to 7.30
4. NC(=O)C1OC2(CCN(Cc3c[nH]c4ccncc34)CC2)c2cc(Cl)ccc21 (stereo not shown) [Compound 264]; ≤ 6.30
5. Cc1nc(Cn2cc(CN3CC[C@]4(C[C@@H]3C)OCCc3ccc(Cl)cc34)nn2)sc1C(N)=O [Compound 165]; ≥ 7.30
6. NC(=O)C1OC2(CCN(Cc3cnn(-c4ccccc4)c3)CC2)c2cc(Cl)ccc21 (single isomer, unassigned) [Compound 193]; 6.30 to 7.30
7. Cc1nn(CCO)cc1Cn1cc(CN2CC[C@]3(C[C@@H]2C)OCCc2ccc(Cl)cc23)nn1 [Compound 170]; ≥ 7.30
8. Cc1n[nH]c(C(F)(F)Cn2cc(CN3CC[C@]4(C[C@@H]3C)OCCc3ccc(Cl)cc34)nn2)n1 [Compound 168]; 6.30 to 7.30
9. C[C@H]1C[C@@]2(CCN1Cc1ncc[nH]1)OCCc1ccc(Cl)cc12 [Compound 110]; 6.30 to 7.30
10. C[C@H]1C[C@@]2(CCN1Cc1cnn(C[C@H](O)C(C)(C)O)c1)OCCc1ccc(Cl)cc12 [Compound 125]; ≥ 7.30
11. O=C1Nc2ccc(Cl)cc2C12CCN(Cc1cccc(OC(F)F)c1)CC2 [Compound 14]; ≤ 6.30
12. COCCN1C(=O)C2(CCN(Cc3cnn(CCS(C)(=O)=O)c3)CC2)c2cc(Cl)ccc21 [Compound 51]; ≤ 6.30
13. COc1ccc2c(c1)C1(CCN(Cc3cnn(-c4ccccc4)c3)CC1)OC2C(N)=O (stereo not shown) [Compound 296]; ≤ 6.30
14. C[C@H]1C[C@@]2(CCN1Cc1cnn3c1CCC3)OCCc1ccc(Cl)cc12 [Compound 113]; ≤ 6.30
15. Cn1ccc(CN2CCC3(CC2)OC(C(N)=O)c2ccc(Cl)cc23)cc1=O (stereo not shown) [Compound 269]; ≤ 6.30
16. CCc1ccc2c(c1)C1(CCN(Cc3cnn(-c4ccccc4)c3)CC1)OC2C(N)=O (stereo not shown) [Compound 205]; ≥ 7.30
